Test system: c-myc
Assay: Inhibition of c-myc expression (mRNA, real-time PCR) in MV4-11 cells
Format: cell-based
Parameters: key: Active: Compounds with an IC50 value less than 30 μM were deemed to be active.; Not Active: Compounds with an IC50 value less than 30 μM were deemed to be active
Details: Human AML MV4-11 cells, 3 hours
Structures can show the parent of a compound that is named as a salt.
measured-endpoint: c-myc activity (IC50 < 30 μM)

See these solved cases before continuing.
compound: COc1cc(OC)c2c(=O)[nH]c(-c3ccc(OCCNC(C)C)c(N4CCN(C(C)C)CC4)n3)nc2c1 [Example 12, bis(trifluoroacetate)]
experimental-system: c-myc
result: Active

compound: COc1cc(OC)c2c(=O)[nH]c(-c3cc(OC(F)(F)F)cc(N4CCN(C(C)C)CC4)c3)nc2c1 [Example 20]
experimental-system: c-myc
result: Not Active

compound: COc1cc(OC)c2c(=O)[nH]c(-c3cccc(N4CCN(CCS(C)(=O)=O)CC4)n3)nc2c1 [Example 6]
experimental-system: c-myc
result: Not Active

compound: COc1cc(OC)c2c(=O)[nH]c(-c3cc(Cl)cc(N4CCN(C(C)C)CC4)c3)nc2c1 [Example 32]
experimental-system: c-myc
result: Active

compound: CCC(=O)N1CCN(c2cccc(-c3nc4cc(OC)cc(OC)c4c(=O)[nH]3)n2)CC1 [Example 19, dihydrochloride]
experimental-system: c-myc
result: Not Active

compound: COCCN1CCN(c2cccc(-c3nc4cc(OC)cc(OC)c4c(=O)[nH]3)n2)CC1 [Example 3]
experimental-system: c-myc
result: Active

Turning now to a further record.
c-myc activity (IC50 < 30 μM) for COc1cc(OC)c2c(=O)[nH]c(-c3cccc(N4CCN(C(C)C)CC4)n3)nc2c1 [Example 17, Hydrochloride] is Active
